Assay: solvent given as SMILES
Conditions: in CCCCOCCCC
Each record is given label 1 if its reported fluorescence lifetime is strictly below 10 ns. Records at or above 10 ns are given label 0.

1) COc1nc(Nc2ccc3c4c(cccc24)C(=O)c2ccccc2-3)nc(OC)n1: label 1
2) CCN(CC)c1ccc2nc3c4ccccc4c(=O)cc-3oc2c1: label 1
3) CC(=O)Nc1ccc2c3c(cccc13)C(=O)c1ccccc1-2: label 1
4) COc1nc(Cl)nc(Nc2ccc3c4c(cccc24)C(=O)c2ccccc2-3)n1: label 1
5) Cn1cccc1-c1cc(C#N)ccc1C#N: label 0
6) CN(C)c1ccc2nc3c(cc2c1)c(-c1ccccc1)nn3-c1ccccc1: label 0
7) c1ccc(-c2nn(-c3ccccc3)c3nc4ccccc4cc23)cc1: label 0
8) c1ccc(-c2nn(-c3ccccc3)c3nc4ccc(-n5c6ccccc6c6ccccc65)cc4cc23)cc1: label 0
9) CCCCCCCCC1(CCCCCCCC)c2ccccc2-c2ccc(N(c3ccc(-n4c5ccccc5c5ccccc54)cc3)c3ccc4c(c3)C(CCCCCCCC)(CCCCCCCC)c3ccccc3-4)cc21: label 1
10) CN(C)c1ccc(/C=C/C=C/c2ccc(C#N)cc2)cc1: label 1
